# test-name: XTT colorimetric cytotoxicity assay on cord blood CD34+ cells
# Type: cell-based
# reported-conditions: CD34+ cells from normal human cord blood; FIG. 1; read-out: IC50, cytotoxicity against CD34+ cells (XTT)
quantity-name: IC50 (µM)
Write the answer as a number in µM, unit excluded.

According to the records, this compound C[C@@]12C(=O)OC(=O)[C@]1(C)[C@H]1CC[C@@H]2O1 [cantharidin] displays IC50 of 6.5

---

# Test system: CD34+ cells from normal human cord blood
# test-name: XTT colorimetric cytotoxicity assay on cord blood CD34+ cells
# Assay type: cell-based
# reported-conditions: FIG. 1, read-out: IC50, cytotoxicity against CD34+ cells (XTT)
quantity-name: IC50 (µM)
Write the answer as a number in µM, unit excluded.

O=C1OC(=O)[C@H]2[C@@H]1[C@@H]1CC[C@H]2O1 tested on CD34+ cells from normal human cord blood gave IC50: 52
